Where do the numbers come from? From patent US20180327803A1.

- target: human IgG1 antibody (#I5154; Sigma-Aldrich) (human)
- measurement.notes: SPR, single cycle kinetics, IgG1 chip

| binder | kon (M⁻¹ s⁻¹) |
| --- | --- |
| R2-16 rabbit-derived single-chain antibody-His (scFv) scFv: QSVKESGGRLVTPGTPLTLTCTVSGFSLSSYAMGWVRQAPGKGLEYIGIISSSGSTYYASWAKGRFTISKTSTTVDLKITSPTTEDTATYFCARYSGDNGGALNLWGPGTLVTVTSGGGGSGGGGSGGGGSELDLTQTAASVSEPVGGTVTISCQSSQHIRSYLAWYQQKPGQPPKLLISAASTLASGVSSRFKGSGSGTEFTLTISDLECADAATYYCQRYYDIRNYGNGFGGGTEVEITGSHHHHHH | 130000 |
| R2-18 rabbit-derived single-chain antibody-His (scFv) scFv: QSLEESGGRLVTPGTPLTLTCTVSGIDLSSNAMTWVRQAPGEGLEWIGTISTGGSTYFASWAKGRFTISKTSTTVDLKITSPTTEDTATYFCATRYDSYGYAYNYWFGTLWGPGTLVTVTSGGGGSGGGGSGGGGSELVMTQTAASVSEPVGGTVTIKCQASQNINNELAWYQQKPGQRPKLLIYDASKLASGVPSRFSGSGSGTEFTLTISGMQCDDAATYYCQSTYYDGNYVYAFGGGTEVDVKGSHHHHHH | 25000 |
| R3-26 rabbit-derived single-chain antibody-His (scFv) scFv: QEQLVESGGGLVKPGGTLTLTCTVSGIDLSSYAMSWVRQVPGKGLEWIGIIGSGGGTAYANWAKGRFTISKTSSTTVDLKMTSLTTEDTATYFCATDYGIYGYAYGHLWGPGTLVTVTSGGGGSGGGGSGGGGSELVMTQTASPVSAAVGGTVTIKCQASQSISTALAWYQQRPGQPPKLLIYDASTLASGVSSRFKGSGSGTEFTLTISDLECADAATYYCQTYFGSDTDNAFGEGTEVEITGSHHHHHH | 21000 |
